- experiment-summary: inhibition of 3D7 malaria parasite growth – strain 3D7 (AID 2306);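 also: 0% = DMSO wells and 100% = chloroquine plus artemisinin control wells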
- details: P. falciparum 3D7 erythrocytic growth, LDH absorbance, 72 h; at 2 µM; hits give high values
The source made the active and inactive calls. No rule for the calls is given here.
Measured growth inhibition, listed per entry.

// worked examples, growth inhibition included
[
  {
    "molecule": "N#Cc1ccc2c(c1)CCN(CCC1CCC(NC(=O)/C=C/c3cccc4ccccc34)CC1)CC2 (centres undefined)",
    "property-name": "growth inhibition",
    "experimental-result": "96% (active)"
  },
  {
    "molecule": "O=C(/C=C/c1ccc(Cl)c(Cl)c1)NCCCCCN1CCC(NC(=O)Nc2ccc(Cl)c(C(F)(F)F)c2)CC1",
    "property-name": "growth inhibition",
    "experimental-result": "99% (active)"
  },
  {
    "molecule": "Cc1cc(N[C@@H](Cc2ccccc2)C(=O)NCc2cccc(F)c2)nc(NCC2CCCCC2)n1",
    "property-name": "growth inhibition",
    "experimental-result": "101% (active)"
  }
]

Input: For CCCC1N=C(N)N=C(N)N1c1cccc(C(F)(F)F)c1 (centres undefined) , what is its reported growth inhibition?
Output: 95% (active)

Input: Again, but for OC(CNCCc1ccccc1)Cn1c2ccc(Cl)cc2c2cc(Cl)ccc21 (centres undefined)
Output: 98% (active)

----------
- experiment-summary: inhibition of 3D7 malaria parasite growth – strain 3D7 (AID 2306);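 also: 0% = DMSO wells and 100% = chloroquine plus artemisinin control wells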
- details: P. falciparum 3D7 erythrocytic growth, LDH absorbance, 72 h; at 2 µM; hits give high values
Measured growth inhibition, listed per entry.
I only need the number, in %, no unit after it.

// worked examples, growth inhibition included
[
  {
    "compound": "CCOC(=O)c1c(NC(=O)c2ccccc2)sc2c(O)c(CN(CC)CC)ccc12",
    "growth inhibition / %": 100
  },
  {
    "compound": "CC1CN=C(c2cccc(NC(=O)Nc3cccc(C4=NCC(C)N4)c3)c2)N1 (stereo not given)",
    "growth inhibition / %": 94
  },
  {
    "compound": "CC(=O)Nc1ccc2[nH]cc(C3CCN(CC4CCN(C(=O)/C=C/c5ccc(Cl)c(Cl)c5)CC4)CC3)c2n1",
    "growth inhibition / %": 100
  },
  {
    "compound": "CCC(C)(C)C1CCc2[nH]c3ccccc3c(=O)c2C1 (stereo not given)",
    "growth inhibition / %": 97
  },
  {
    "compound": "COc1ccc(CNCCCCCCCNCc2ccc(Cl)c(Cl)c2)cc1Cl",
    "growth inhibition / %": 90
  }
]

Input: For Cc1ccc(C(=O)Nc2cccc(CN3CCCN(Cc4ccc(O)cc4)CC3)c2)s1 , what is its reported growth inhibition?
Output: 90

Input: Again, but for CCOC(=O)CN1Cc2cc(NCc3ccc4ccc5nc(C)[nH]c(=O)c5c4c3)ccc2C1=O
Output: 84

Input: Again, but for CCOC(=O)c1ccc(-c2cnoc2-c2cc(CC)c(OC)cc2O)o1
Output: 101

Input: Again, but for C=C[C@H]1CN(CCCCCCC)CC[C@H]1CC(O)Cc1ccnc2cc(O)c(OC)cc12 (stereo not given in full)
Output: 95

Input: Again, but for Oc1cccc(Nc2nc(NCc3ccccc3)c3ccccc3n2)c1
Output: 95

----------
- experiment-summary: human hepatoma cell viability loss – ATP luminescence, cytotoxicity control for P. falciparum antimalarial project, primary screen (AID 2303);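 also: 0% = DMSO wells and 100% = digitonin-killed cells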
- details: HepG2 viability, 24-48 h, at 10 µM
Calls of active or inactive are those of the source.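 The calls were made as follows: active = inhibition above 50%; inactive = the rest.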
Please reply with one of these outcomes: active, inactive

Input: Could you please tell me the result logged for COc1cc2nc(NCCc3ccccc3)nc(NCCCc3ccccc3)c2cc1OC in this assay?
Output: inactive

Input: Again, but for Cc1nc(-c2nc(NCc3ccc4c(c3)OCO4)ncc2-c2ccsc2)sc1C
Output: inactive

Input: Again, but for Cc1[nH]c(C)c(-c2ccc(-c3cc(C(F)(F)F)cc(C(F)(F)F)c3)nc2)c(=O)c1Br
Output: inactive

Input: Again, but for COc1cc(NC(=O)N2CCc3ccc(OCCN4CCCCC4)cc32)cc(C(F)(F)F)c1
Output: inactive

Input: Again, but for Cc1cc(C)c(NC(=O)NC2CCN(CCCCCNC(=O)/C=C/c3ccc(Cl)c(Cl)c3)CC2)c(C)c1
Output: inactive

Input: Again, but for CN1CCC(c2cc3c(cc2Br)CCN3C(=O)Nc2ccc(-c3ccncc3)c(Cl)c2)CC1
Output: inactive

Input: Again, but for COc1ccc2[nH]c3ccccc3c(=O)c2c1
Output: inactive

Input: Again, but for CNCCNc1nccc(N2CCc3ncnc(Nc4ccc(OCc5cccc(F)c5)c(Cl)c4)c3C2)n1
Output: inactive

Input: Again, but for O=C(Nc1ccc(-c2cccc(-c3nc4ccccc4[nH]3)c2)cc1)c1cnn2cccnc12
Output: active

Data origin, for the record: PubChem BioAssay
